system: OVCAR-4; assay: NCI tumour cell line growth inhibition, 48 h
Activity calls are given as the source filed them. Rule as the data show it: active = GI50 up to about 1.1 µM and inactive = higher. Numbered stars: 1 amine (or outer) side, 2 acyl side, 3 side chain; on linkers, the order of the positions; unused ones are H or OH. Bridge positions count the residues as written; N and C are the ends. Square brackets hold non-standard residues; d marks the D form. Peptide text beside a SMILES is read from it. * marks the point of attachment. ξ: configuration not given here. X33 = O=C(C(CCCCNO[*:3])N[*:1])[*:2]; Fmoc = O=C(OCC1c2ccccc2-c2ccccc21)*; ξW = NC(Cc1c[nH]c2ccccc12)C(=O)O; ξP = O=C(O)C1CCCN1
Result category, one only: active, inactive

These recorded examples may help you get a feel for the data.
| compound | group |
| --- | --- |
| CC12CP(=O)(c3ccccc3)CC1C2(Cl)Cl (stereo not given) | inactive |
| Cc1ccccc1NC(=O)/C(=N\NC(N)=S)C(C#N)c1ccccc1 (stereo not given) | inactive |
| NC(=O)CNC(=O)C1CCCN1C(=O)C1CCCCNOC(=O)CC[C@@H](NC(=O)OCC2c3ccccc3-c3ccccc32)C(=O)NC(Cc2c[nH]c3ccccc23)C(=O)N1 (stereo not given in full) (Fmoc-[dE][ξW][X33][ξP]G-NH2; ester 1-3) | inactive |

// outcome(item) with item = CC(C)=CCc1c(O)cc(O)c2c1OC(c1ccc(O)cc1)C(O)C2=O (stereo not given)
inactive

Check CCOC(=O)c1c2ccccc2n2c(=O)n(C)nnc12 too.
inactive

Check Nn1c(SCC(=O)NCc2ccccc2)nc2ccccc2c1=O too.
inactive

Check c1ccc(COCC2OC3c4ccccc4COC3C2OCc2ccccc2)cc1 (stereo not given) too.
inactive

Check Nc1ncc(Cc2ccc3c(c2)OCO3)c(N)n1 too.
inactive

Check O=C1NC2OC(C(O)CO)C(O)C2O1 (stereo not given) too.
inactive

Check C/C1=C/C(C)CC(C)OC(=O)C(C)NC(=O)C(Cc2ccc(O)c(I)c2)N(C)C(=O)CNC(=O)C(C)C1 (stereo not given) too.
active

Check CC1(C)C=[N+]([O-])C(C)(C)N1O too.
inactive

Check CCN(CC)CC/N=C\c1c(O)c(O)c(C(C)C)c2cc(C)c(-c3c(C)cc4c(C(C)C)c(O)c(O)c(/C=N/CCN(CC)CC)c4c3O)c(O)c12 too.
active

Check CCOc1ccc2ccc3cccnc3c2n1 too.
inactive

----------
system: NCI-H460; experiment: NCI tumour cell line growth inhibition, 48 h
Activity calls are given as the source filed them. Cut-off read from the data, not from the text of the source: active = GI50 up to about 1.1 µM and inactive = higher.
experimental endpoint: GI50

Batch request: GI50 per item, same order as input.
1. CC12CP(=O)(c3ccccc3)CC1C2(Cl)Cl (stereo not given)
2. O=P(O)(O)c1ccc(-c2ccc(I)cc2)cc1
3. Cc1cc2nc(N3C(=O)/C(=C/c4ccc(Oc5ccccc5)cc4)N=C3c3ccccc3)sc2cc1C
4. Cc1cc(C)c(S(=O)(=O)N(CCCCCCN)OCCCON(CCCCCCN)S(=O)(=O)c2c(C)cc(C)cc2C)c(C)c1
5. O=C1CC(c2ccc(Cl)cc2)Oc2ccccc21 (stereo not given)

1: > 100 µM (inactive); 2: > 100 µM (inactive); 3: 32.1 µM (inactive); 4: 1.64 µM (inactive); 5: 19.8 µM (inactive)

----------
system: SF-268; assay: NCI tumour cell line growth inhibition, 48 h
Active and inactive are the calls of the source. Rule as the data show it: active = GI50 up to about 1.1 µM and inactive = higher.
Result category, one only: active, inactive

These recorded examples may help you get a feel for the data.
| compound | group |
| --- | --- |
| Cc1cc2nc(N3C(=O)/C(=C/c4ccc(Oc5ccccc5)cc4)N=C3c3ccccc3)sc2cc1C | inactive |
| COc1ccc(C2=Cc3nc2c(-c2ccccc2)c2ccc([nH]2)c(-c2ccccc2)c2nc(c(-c4ccccc4)c4ccc([nH]4)c3-c3ccccc3)C=C2)cc1 | inactive |
| O=C(NNC(=O)c1ccccc1O)c1ccccc1O | active |
| CCCCC(O)(c1ccccc1)C(O)(c1ccccc1)c1c(F)c(F)c(F)c(F)c1F (stereo not given) | inactive |

Alright, here's another compound for you.
// outcome(item) with item = COc1ccc(C2CC3(c4ccccc4)ON=C(c4ccccc4)N3c3ccccc3S2)cc1 (stereo not given)
inactive

----------
Can you tell me GI50 for the items I'm about to list?
test system: SF-295; assay: NCI tumour cell line growth inhibition, 48 h
Activity calls are given as the source filed them. No stated cut-off is given here; in the data, active = GI50 up to about 1.1 µM and inactive = higher.

| molecule | assay target | reading |
| --- | --- | --- |
| CCOC(=O)c1ccc(-c2cc(C)no2)[nH]1 | SF-295 | > 100 µM (inactive) |
| COC(=O)C1=C(C(=O)OC)C2C(C)=CC(C)=CN2C(C#N)=C(SC)S1 (stereo not drawn) | SF-295 | 31 µM (inactive) |
| O=P(O)(O)c1ccc(-c2ccc(I)cc2)cc1 | SF-295 | > 10 µM (inactive) |
| COC1CCC(OS(C)(=O)=O)C(CO)O1 (stereo not drawn) | SF-295 | > 100 µM (inactive) |
| Nc1nc(Cl)cc(/N=N\c2ccccc2)n1 | SF-295 | 30.7 µM (inactive) |

Batch request: GI50 per item, same order as input.
1. COc1cc(C2SC(=N)Nc3c2c(C)nn3C(=O)c2ccc(Cl)cc2)cc(OC)c1OC (stereo not drawn)
2. O=c1oc2cc(O)ccc2cc1-c1nc2ccccc2o1
3. Cc1cc(S(=O)(=O)/N=C(\NN)NCC(=O)NN)c(S)cc1Cl
4. CCOC(=O)C1=NN(c2ccccc2)C(=O)/C1=C\NC(=S)C(N)=S
5. COC(=O)[C@@H]1C[C@@H](O)CN1C(=O)c1ccc([N+](=O)[O-])cc1[N+](=O)[O-]
6. O=S(=O)(CF)OCCCCOS(=O)(=O)CF
7. CCO/C=N/C1=C(C#N)C(c2ccc(OC)c(OC)c2)c2c(-c3ccccc3)nn(-c3ccccc3)c2O1 (stereo not drawn)

1: > 10 µM (inactive); 2: 44.9 µM (inactive); 3: > 10 µM (inactive); 4: 74.6 µM (inactive); 5: > 100 µM (inactive); 6: > 100 µM (inactive); 7: 11.1 µM (inactive)

----------
test system: Malme-3M; test: NCI tumour cell line growth inhibition, 48 h
The source made the active and inactive calls. No stated cut-off is given here; in the data, active = GI50 up to about 1.1 µM and inactive = higher.
Result category, one only: 1.0 = active, 0.0 = inactive

| compound | group |
| --- | --- |
| O=C(C=P(c1ccccc1)(c1ccccc1)c1ccccc1)CC(=S)CC(=O)C=P(c1ccccc1)(c1ccccc1)c1ccccc1 | 0.0 |

// outcome(item) with item = O=C(CSc1nnc(Cc2ccccc2)o1)Nc1cccc([N+](=O)[O-])c1
0.0

Check COc1cc2c(cc1OC)[C@@H]([C@H](O)c1ccccc1)NCC2 too.
0.0

Check Nc1ncc(Cc2ccc3c(c2)OCO3)c(N)n1 too.
0.0

Check COc1ccc2nc(NCN3C(=O)c4ccccc4C3=O)sc2c1 too.
0.0

Check Cc1cccc(/C=N/NC(=S)Nc2ccccc2)n1 too.
0.0

Check CCN(CC)/[N+]([O-])=N/OCOC too.
0.0

Check CN(C)c1ccc(/N=N\c2cccc3ncccc23)cc1 too.
0.0

Check C[C@]1(O)CC[C@H]2[C@@H]3CCc4cc(O)ccc4[C@H]3CC[C@@]21C too.
1.0

----------
test system: DMS-273; assay: NCI tumour cell line growth inhibition, 48 h
Activity calls are given as the source filed them. No stated cut-off is given here; in the data, active = GI50 up to about 1.1 µM and inactive = higher.
Result category, one only: active, inactive

| compound | assay target | group |
| --- | --- | --- |
| COc1ccc(C(C2=C(O)CC(C)OC2=O)C2=C(O)CC(C)OC2=O)cc1 (stereo unspecified) | DMS-273 | inactive |
| O=C1NC2OC(C(O)CO)C(O)C2O1 (stereo unspecified) | DMS-273 | inactive |
| O=C(CSc1nnc(Cc2ccccc2)o1)Nc1cccc([N+](=O)[O-])c1 | DMS-273 | inactive |
| Cc1cccc(C)c1NC(=O)CCC(=O)CC(=O)C(C)C | DMS-273 | inactive |
| CC(=O)CCC#Cc1ccccc1C(=O)C(C)=[N+]=[N-] | DMS-273 | inactive |

// outcome(item) with item = NC1=NN(c2ccccc2)C(=O)C1C(=O)CCC(=O)Nc1cccc(Cl)c1 (stereo unspecified)
inactive

Check Cc1c(Cl)ccc2[s+]snc12 too.
inactive

Check CC1=CC(=O)NP(=O)(Oc2ccc(C)cc2)N1 (stereo unspecified) too.
inactive

Check CCc1nnc(-c2nsc3ccccc23)s1 too.
inactive

Check COc1cc(NS(C)(=O)=O)ccc1Nc1c2ccccc2nc2c1[nH]c1ccc(NC3OC(CO)C(O)C(O)C3O)cc12 (stereo unspecified) too.
active

Check O=C(Nc1ccccc1)n1cc(-c2ccccn2)c(N2CCOCC2)n1 too.
inactive

----------
Can you tell me GI50 for the items I'm about to list?
system: SNB-19; experiment: NCI tumour cell line growth inhibition, 48 h
Active and inactive are the calls of the source. Cut-off read from the data, not from the text of the source: active = GI50 up to about 1.1 µM and inactive = higher.

Batch request: GI50 per item, same order as input.
1. O=C(/C=C/c1ccc(O)c([N+](=O)[O-])c1)CC(=O)/C=C/c1ccc(O)c([N+](=O)[O-])c1
2. CCO/C=N/C1=C(C#N)C(c2ccc(OC)c(OC)c2)c2c(-c3ccccc3)nn(-c3ccccc3)c2O1 (stereo unspecified)
3. CC(C)(C)OC(=O)N1CCCC1=O
4. COc1ccc2nc(NCN3C(=O)c4ccccc4C3=O)sc2c1
5. O=C(Nn1c(-c2ccccc2)nc2ccccc2c1=O)c1ccccn1
6. CCNC(=O)COc1ccc(Cl)cc1Cl
7. CC1=C(C(=O)Nc2cccc3c2C(=O)NC3=O)CC(C(=O)Nc2cccc3c2C(=O)NC3=O)=C(C)N1
8. O=C1NC2CCCCC2N=C1CC(=O)c1ccc(Br)cc1 (stereo unspecified)

["88.9 µM (inactive)", "15.9 µM (inactive)", "> 10 µM (inactive)", "> 100 µM (inactive)", "> 100 µM (inactive)", "> 100 µM (inactive)", "> 100 µM (inactive)", "> 100 µM (inactive)"]

Batch request: GI50 per item, same order as input.
1. Cc1c(C)c2cc3c(=O)c(CCl)coc3c(C)c2oc1=O
2. N#CC1=C(N)OC2=C(CSc3ccccc32)C1c1ccc(Br)cc1 (stereo unspecified)

["> 100 µM (inactive)", "17.7 µM (inactive)"]
